# test-method-notes: IOSE-T80 ovarian epithelial cell cytotoxicity, dose response, cytotoxicity control for PAX8 inhibitor project, plate reader, dry powder samples (AID 743045);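 note: 0% = neutral control median and -100% = positive control median; more negative values mean more cell killing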
# run-parameters: IOSE-T80 ovarian epithelial cells; series mostly up to 35 µM
Measured potencies and affinities stand elsewhere. Activity calls are given as the source filed them. The rule behind the calls is not given here.
metric: activity change, negative = cytotoxicity

> print(dat)
                               given.smiles                                    metric  recorded.measurement
1  C[C@@H]1CN([C@@H](C)CO)S(=O)(=O)c2ccc(C#Cc3ccccc3F)cc2O[C@H]1CN(C)C(=O)Cc1ccccc1  activity change, negative = cytotoxicity              inactive
2  C[C@@H]1CN([C@H](C)CO)C(=O)c2cc(NC(=O)Nc3ccc(F)cc3)ccc2O[C@@H](C)CCCCO[C@@H]1CN(C)Cc1ccc2c(c1)OCO2  activity change, negative = cytotoxicity              inactive
3  C[C@@H]1CCCCO[C@@H](CN(C)Cc2ccc(C(F)(F)F)cc2)[C@@H](C)CN([C@@H](C)CO)C(=O)c2cc(NS(=O)(=O)c3ccc(F)cc3)ccc2O1  activity change, negative = cytotoxicity              inactive
4  C[C@H](CO)N1C[C@H](C)[C@H](CN(C)Cc2ccc(C(F)(F)F)cc2)OCCCC[C@H](C)Oc2ccc(NS(=O)(=O)c3ccc(F)cc3)cc2C1=O  activity change, negative = cytotoxicity              inactive

Here are 2 molecules. What values of activity change, negative = cytotoxicity were reported for them?
1. C[C@@H]1CCCCO[C@@H](CN(C)C(=O)Nc2ccc(C(F)(F)F)cc2)[C@H](C)CN([C@@H](C)CO)C(=O)c2cc(NC(=O)Nc3ccc(C(F)(F)F)cc3)ccc2O1
2. C[C@@H]1CN([C@@H](C)CO)C(=O)c2cc(NC(=O)Nc3ccc(C(F)(F)F)cc3)ccc2O[C@@H](C)CCCCO[C@H]1CN(C)Cc1ccc(Cl)c(Cl)c1

Output:
1: inactive; 2: inactive

====

Could you please report measured composite z-score for the items listed next?
# measured-target: Dihydroorotate dehydrogenase (quinone), mitochondrial (Plasmodium falciparum (isolate 3D7)) (UniProt Q08210)
# Sequence (Q08210 whole entry, looked up): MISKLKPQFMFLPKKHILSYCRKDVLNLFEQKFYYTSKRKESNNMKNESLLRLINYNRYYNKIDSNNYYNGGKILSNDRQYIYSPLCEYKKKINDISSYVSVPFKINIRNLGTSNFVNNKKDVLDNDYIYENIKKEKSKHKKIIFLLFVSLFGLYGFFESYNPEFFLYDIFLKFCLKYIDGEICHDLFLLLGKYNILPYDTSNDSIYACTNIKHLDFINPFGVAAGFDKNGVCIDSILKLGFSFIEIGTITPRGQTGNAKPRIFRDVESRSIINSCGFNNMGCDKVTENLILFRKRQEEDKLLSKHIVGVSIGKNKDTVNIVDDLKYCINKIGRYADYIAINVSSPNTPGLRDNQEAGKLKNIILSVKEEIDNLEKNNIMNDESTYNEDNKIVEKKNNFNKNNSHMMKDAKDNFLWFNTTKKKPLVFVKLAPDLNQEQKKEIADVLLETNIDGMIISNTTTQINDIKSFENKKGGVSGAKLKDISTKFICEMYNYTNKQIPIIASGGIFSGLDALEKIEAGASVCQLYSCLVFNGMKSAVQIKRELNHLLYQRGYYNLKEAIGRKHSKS
# test-method-notes: PfDHODH enzyme inhibitors, primary screen, biochemical, C-terminal His tag, absorbance 600 nm (AID 1175);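 note: recombinant parasite enzyme with a five histidine tag at its C terminus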
# run-parameters: DCIP absorbance 600 nm, higher = more signal, called active from +8 up or from −8 down
One number for each entry.

molecule	metric	recorded-measurement
C=CCC(OC(C)=O)[C@@H]1[C@@H](N(Cc2cccc3ccccc23)C(=O)Cc2ccc(OC)cc2)c2cc(OCCCO)ccc2N1C(=O)Cc1ccc(OC)cc1 (stereo partly drawn)	composite z-score	0.363
O=C(NCc1ccccc1)[C@@H]1c2ccccc2C(=O)N(Cc2ccccc2Cl)[C@H]1c1ccc(CO)cc1	composite z-score	-1.17

Here are 8 molecules. What values of composite z-score were reported for them?
1. C=CC[C@@]1(C(=O)NCc2ccccc2)N=C(c2ccc(OCCCO)cc2)O[C@@H]1c1ccccc1
2. COCCOC(=O)N1C(=O)[C@@]2(c3cc(C#CC4(O)CCCCCC4)ccc31)[C@H](c1ccccc1OCCO)N1[C@H](c3ccccc3)[C@H](c3ccccc3)OC(=O)[C@H]1[C@@H]2C(=O)Nc1nc2ccccc2s1
3. CC(C)C[C@@H]1NC(=O)[C@@H]2C[C@H](C(=O)NCCCCCNC(=O)CS)[C@H](c3cccc(OCCO)c3)N2C1=O
4. C=CCNC(=O)[C@H]1[C@@H]2C(=O)O[C@@H](c3ccccc3)[C@@H](c3ccccc3)N2[C@@H](c2ccccc2OCCO)[C@]12C(=O)N(C(=O)OCCOC)c1ccc(C#CCCO)cc12
5. COc1ccc(/C=C/C(=O)c2cccc(OCC(=O)OC(C)(C)C)c2)cc1
6. CCOC(=O)C[C@H]1[C@H](OC(=O)c2cc3ccccc3oc2=O)[C@@H](NC(=O)c2ccccc2)c2cc(OCCCO)ccc2N1C(=O)Cc1ccc(OC)cc1
7. COC(=O)C1=CC(c2ccc(CO)cc2)=CC(c2cccs2)N(C)C=C1C(=O)OC (stereo not drawn)
8. C=C(COC)C(=O)CC[C@H](OC(=O)c1ccccc1-c1ccccc1C(=O)O)c1ccccc1OCCO

Output:
1: -0.904; 2: 0.764; 3: -0.168; 4: -0.409; 5: 0.131; 6: -2.68; 7: -1.75; 8: -1.46

Here are 3 molecules. What values of composite z-score were reported for them?
1. C=CCOC(=O)[C@H]1[C@@H]2C(=O)O[C@@H](c3ccccc3)[C@@H](c3ccccc3)N2[C@@H](c2ccc(OCCOC(=O)[C@H]3C[C@H]4C(=O)N5CCC[C@H]5C(=O)N4[C@H]3c3cccc(OCCO)c3)cc2)[C@]12C(=O)Nc1ccccc12
2. CCOC(=O)C[C@H]1[C@H](OC(=O)c2ccc(-c3ccccc3)cc2)[C@@H](NC(=O)c2ccccc2)c2cc(OCCCO)ccc2N1C(=O)c1ccccc1
3. CC(C)(C)OC(=O)CC[C@@]1(C(=O)NCc2ccccc2)N=C(c2ccc(OCCCO)cc2)O[C@@H]1c1ccccc1CN=[N+]=[N-]

Output:
1. 0.493
2. 0.594
3. -0.182
